- target-of-assay: PRMT5 (protein arginine methyltransferase 5) (Homo sapiens, UniProt O14744)
- Sequence (O14744 2-637): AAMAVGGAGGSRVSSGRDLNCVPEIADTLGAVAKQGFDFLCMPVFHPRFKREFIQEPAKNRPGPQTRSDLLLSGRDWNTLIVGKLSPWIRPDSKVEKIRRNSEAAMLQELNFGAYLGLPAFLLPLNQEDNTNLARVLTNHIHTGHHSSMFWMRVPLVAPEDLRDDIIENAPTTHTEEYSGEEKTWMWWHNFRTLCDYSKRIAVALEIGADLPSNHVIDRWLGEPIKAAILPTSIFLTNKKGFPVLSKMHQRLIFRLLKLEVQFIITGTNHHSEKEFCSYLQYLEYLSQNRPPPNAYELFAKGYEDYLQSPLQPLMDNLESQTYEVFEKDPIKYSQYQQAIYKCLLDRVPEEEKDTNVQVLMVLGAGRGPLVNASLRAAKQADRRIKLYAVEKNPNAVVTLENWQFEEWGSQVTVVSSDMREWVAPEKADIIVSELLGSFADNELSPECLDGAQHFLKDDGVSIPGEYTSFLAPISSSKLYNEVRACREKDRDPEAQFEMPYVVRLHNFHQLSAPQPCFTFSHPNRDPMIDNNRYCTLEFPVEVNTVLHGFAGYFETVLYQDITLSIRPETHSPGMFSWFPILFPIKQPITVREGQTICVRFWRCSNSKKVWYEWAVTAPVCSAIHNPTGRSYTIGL
- Sequence (Q9BQA1 2-342 partner): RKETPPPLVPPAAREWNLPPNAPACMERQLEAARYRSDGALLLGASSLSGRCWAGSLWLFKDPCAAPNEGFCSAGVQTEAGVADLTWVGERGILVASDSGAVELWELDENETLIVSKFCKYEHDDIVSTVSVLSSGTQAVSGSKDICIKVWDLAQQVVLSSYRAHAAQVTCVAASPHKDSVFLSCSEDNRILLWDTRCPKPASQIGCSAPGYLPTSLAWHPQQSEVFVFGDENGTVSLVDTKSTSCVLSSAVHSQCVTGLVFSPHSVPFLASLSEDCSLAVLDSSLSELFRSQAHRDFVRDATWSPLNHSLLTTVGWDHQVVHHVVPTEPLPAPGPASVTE
pIC50: −log10 of the molar value.
value-kind: pIC50

Task item: Lab note: need pIC50 with PRMT5 (protein arginine methyltransferase 5) (Homo sapiens, UniProt O14744) for entry `CSC[C@H]1O[C@@H](n2cnc3c(N)ncnc32)[C@H](O)[C@@H]1O` , please look it up.
Reply: ~5.70
